Cited source for all entries: patent US10844032B2

System: recombinant Mcl-1 (residues 172-327) (Homo sapiens (Human), UniProt Q07820)
Sequence (Q07820 172-327): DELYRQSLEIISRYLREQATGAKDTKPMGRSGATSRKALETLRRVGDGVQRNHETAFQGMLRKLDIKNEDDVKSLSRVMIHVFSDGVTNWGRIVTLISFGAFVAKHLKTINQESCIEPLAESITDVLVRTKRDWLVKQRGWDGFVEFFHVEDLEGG
Measurement notes: Bak peptide fluorescence polarization anisotropy competition assay, Mcl-1
Assay type: binding
Condition notes: read-out: Ki for inhibition of Mcl-1
pKi: −log10 of the molar value.
Property measured: pKi

For record `Cc1cc(OCCCc2c(C(=O)NS(C)(=O)=O)[nH]c3cc(C(F)(F)F)ccc23)ccc1Cl` the listed pKi is 6.30 to 6.52

For record `Cc1cc(OCCCc2c(C(=O)NS(=O)(=O)CCNC(=O)Cc3c[nH]c4ccccc34)[nH]c3ccccc23)cc(C)c1Cl` the listed pKi is 6.52 to 7.00

For record `Cc1cc(OCCCc2c(C(=O)NS(=O)(=O)CCNC(=O)c3cccnc3)[nH]c3ccccc23)cc(C)c1Cl` the listed pKi is 5.00 to 6.00

For record `O=C(NS(=O)(=O)c1ccc2ccccc2c1)c1oc2ccccc2c1CCCOc1cccc2ccccc12` the listed pKi is 5.00 to 6.00

For record `Cc1cc(OCCCc2c(C(=O)NS(=O)(=O)c3ccc(OCc4ccccc4)nc3)[nH]c3cc(Cl)ccc23)cc(C)c1Cl` the listed pKi is 6.30 to 6.52

For record `Cc1cc(OCCCc2c(C(=O)NS(=O)(=O)CCNC(=O)Cc3cn(C)c4ccccc34)[nH]c3ccccc23)cc(C)c1Cl` the listed pKi is 6.52 to 7.00

For record `Cc1cc(OCCCc2c(C(=O)NS(C)(=O)=O)n(C)c3cc(Cl)ccc23)cc(C)c1Cl` the listed pKi is 6.00 to 6.30

* * *

Record form. Attribute: pKi. Fill in for each entry.
System: recombinant Mcl-1 (residues 172-327) (Homo sapiens (Human))
Measurement notes: Bak peptide fluorescence polarization anisotropy competition assay, Mcl-1
Format: binding
Condition notes: read-out: Ki for inhibition of Mcl-1
pKi: −log10 of the molar value.

For record `Cc1ccc2c(CCCOc3cccc4ccccc34)c(C(=O)NS(C)(=O)=O)[nH]c2c1` the listed pKi is 5.00 to 6.00

For record `Cc1cc(OCCCc2c(C(=O)NS(C)(=O)=O)[nH]c3ccccc23)cc(C)c1Cl` the listed pKi is 6.00 to 6.30

For record `Cc1cc(OCCCc2c(C(=O)NS(=O)(=O)c3ccc4ccccc4c3)oc3ccccc23)cc(C)c1Cl` the listed pKi is 5.00 to 6.00

For record `Cc1cc(OCCCc2c(C(=O)NS(=O)(=O)CCNC(=O)CC34CC5CC(CC(C5)C3)C4)[nH]c3ccccc23)cc(C)c1Cl` the listed pKi is 6.52 to 7.00

For record `Cc1cc(OCCCc2c(C(=O)NS(=O)(=O)c3ccccc3)[nH]c3c(-c4ccncc4)cccc23)cc(C)c1Cl` the listed pKi is 6.52 to 7.00

For record `Cc1cc(OCCCc2c(C(=O)NS(C)(=O)=O)[nH]c3c(C)c(Cl)ccc23)cc(C)c1Cl` the listed pKi is 6.52 to 7.00

For record `Cc1cc(OCCCc2c(C(=O)NS(=O)(=O)c3ccc(C(=O)N4CCOCC4)o3)[nH]c3cc(Cl)ccc23)cc(C)c1Cl` the listed pKi is 6.52 to 7.00

* * *

System: recombinant Mcl-1 (residues 172-327) (Homo sapiens (Human), UniProt Q07820)
Measurement notes: Bak peptide fluorescence polarization anisotropy competition assay, Mcl-1
Format: binding
Condition notes: read-out: Ki for inhibition of Mcl-1
Record form. Attribute: Ki. Fill in for each entry.

Field Ki (system: recombinant Mcl-1 (residues 172-327) (Homo sapiens (Human), UniProt Q07820)) for entry `Cc1cc(OCCCc2c(C(=O)NS(C)(=O)=O)[nH]c3c(Br)cccc23)cc(C)c1Cl` = 0.301 to 0.5 µM

Field Ki (system: recombinant Mcl-1 (residues 172-327) (Homo sapiens (Human), UniProt Q07820)) for entry `Cc1ccccc1Cn1cccc1C(=O)NCCS(=O)(=O)NC(=O)c1[nH]c2cc(Cl)ccc2c1CCCOc1cc(C)c(Cl)c(C)c1` = 0.301 to 0.5 µM

Field Ki (system: recombinant Mcl-1 (residues 172-327) (Homo sapiens (Human), UniProt Q07820)) for entry `Cc1ccc2c(CCCOc3cc(C)c(Cl)c(C)c3)c(C(=O)NS(C)(=O)=O)[nH]c2c1` = 0.301 to 0.5 µM

Field Ki (system: recombinant Mcl-1 (residues 172-327) (Homo sapiens (Human), UniProt Q07820)) for entry `Cc1cc(OCCCc2c(C(=O)NS(=O)(=O)C3CC3)[nH]c3cc(Cl)ccc23)cc(C)c1Cl` = 0.101 to 0.299 µM

Field Ki (system: recombinant Mcl-1 (residues 172-327) (Homo sapiens (Human), UniProt Q07820)) for entry `Cc1cc(OCCCc2c(C(=O)NS(=O)(=O)CCNC(=O)c3ccco3)[nH]c3ccccc23)cc(C)c1Cl` = 0.101 to 0.299 µM

Field Ki (system: recombinant Mcl-1 (residues 172-327) (Homo sapiens (Human), UniProt Q07820)) for entry `Cc1cc(OCCCc2c(C(=O)NS(C)(=O)=O)sc3cccc(Cl)c23)cc(C)c1Cl` = 1 to 9.99 µM
